biological target: Recombinant human MMP-13 (Homo sapiens); construct: made in house; host or cells: baculovirus / insect cells; test: In vitro MMP inhibition, fluorogenic peptide substrate; format: biochemical; settings: Table B
pIC50: −log10 of the molar value.
measured.quantity: pIC50

(P) COc1ccc(-c2ccc(OC3CCN(S(=O)(=O)c4ccc(OC)c(OC)c4C(=O)NO)CC3)cc2)cc1OC
(Q) CCCCOc1ccc(N2CCN(S(=O)(=O)c3ccc(OC)c(OC)c3C(=O)NO)CC2)cc1F
(R) O=C(NO)c1ccccc1S(=O)(=O)N1CCN(C(=O)c2ccccc2)CC1
(S) COc1ccc(S(=O)(=O)N2CCN(c3ccc(OC(F)(F)F)cc3)CC2)c(C(=O)NO)c1OC
Sort entries by pIC50 from minimum to maximum value. State the ranking by listing the labels in the requested order. R, S, Q, P
(R: 5.17, S: 7.75, Q: 8.07, P: 8.59)
